targetUnderTest: pooled human IgG (human IgG1, 2, 3 and 4)
quantityKind: Enzyme Activity Endpoint Assay: Fab′2 (ng/µL)
Give the number; ng/µL is assumed, so skip it.

PRT-504 (protein) MITSVWTKGVTPPTDFIKGEDVFHAPYKAGQGWYDITKAFDGGDDLLCGAATAGNMLHWWFDQNKEYIEAYLKKHPEKQKIMFGDQELLDVRKAINTKGSQKNSELFNYFRDKAFPNLSARRLGVMPDLVLDMFINGYYLNVTKTQTTDVNRTYQEKDKRGGIFDAVFTRGDQSKLLTSRHDLKNKGLNEISQLIKQELTEGKALGLSHTYANVRINHVINLWGADFDADGNLEAIYVTDSDSNASIGMKKYFVGVNSAGKVAISAKEIKEDNIGAQVLGLFTLSTGQDIWNQTNLEHHHHHH	1310

# next protein below
Request: Report measured Enzyme Activity Endpoint Assay: Fab′2; entry is PRT-391 (protein) MVTSVWTKGVTPPTNFTYGEDVLHAPYVANQGWYDITKTFNGKDDLLCGAATAGNMLHWWFDQNKEQIENYLKKHPEKQKINFNGEQMFDVKEAIDTKDSQLDSKLFEYFKEKAFPYLSTKHLGVFPDHVIDMFINGYRLSLTNHGPTPVKRGSKDKRGGIFDAVFTRGDQSKLLTNRHDFKEKTLKEISDLIKQELTEGKALGISHTYANVRINHVINLWGADFDAEGNLEAIYVTDSDSNASIGMKKYFVGVNSNGKVAISAKEIEEDNIGAQVLGLFTLSTGQDIWNQTN
Response: 498
